test.protocol: Solubility Determination Assay in PBS pH 1.6 and pH 7.4
Format: physicochemical
measurement.conditions: PBS buffer, aqueous buffer, kinetic from dmso stock, PBS pH 1.6, 25° C., read-out: Aq. Solubility at pH = 1.6
The reader will find reported solubility at 2 h values listed item by item below.
readout.type: solubility at 2 h

molecule	data.value
O=c1c2cc(-c3ccc(Cl)cc3)nc(-c3cccnc3)c2ncn1[C@H]1COC[C@H]1O (stereo in doubt) [Compound 70]	≥ 1 µM
C[C@@H](CO)n1cnc2c(-c3cccnc3)nc(-c3ccc(OC(F)(F)F)nc3)cc2c1=O [Compound 50]	≥ 1 µM
C[C@@H](CO)n1cnc2c(-c3cccc(F)c3)nc(-c3ccc(OC(F)(F)F)cc3)cc2c1=O [Compound 49]	< 0.1 µM
C[C@@H](CO)n1cnc2c(-c3cccnc3)nc(-c3ccc(C(F)(F)F)cc3)cc2c1=O [Compound 23]	≥ 1 µM
Cn1cc(-c2nc(-c3ccc(C(F)(F)F)cn3)cc3c(=O)n(CC(C)(C)O)cnc23)cn1 [Compound 103]	0.1 to 1 µM
C[C@@H](O)Cn1cnc2c(-c3cccnc3)nc(-c3ccc(C(F)(F)F)nc3)cc2c1=O [Compound 112]	≥ 1 µM
Cc1ccc(-c2cc3c(=O)n([C@H](CO)C(C)C)cnc3c(-c3cc(F)cc(F)c3)n2)cc1 [Compound 37]	≥ 1 µM

* * *

test.protocol: Plasma Protein Binding with Ultracentrifugation Method, human
Assay type: in vitro ADME
measurement.conditions: human plasma, 1.0 μM; read-out: Human plasma protein binding (% bound)
Attribute: fraction unbound at 30 min, 1 μM

compound.smiles	fraction unbound at 30 min, 1 μM
O=c1c2cc(-c3ccc(Cl)cc3)nc(-c3cccnc3)c2ncn1[C@H]1COC[C@@H]1O	< 0.25
CC(C)(O)Cn1cnc2c(-c3cccnc3)nc(-c3ccc(C(F)(F)F)nc3)cc2c1=O	< 0.25
C[C@@H](CO)n1cnc2c(-c3cnn(C)c3)nc(-c3ccc(Cl)cc3)cc2c1=O	< 0.25
O=c1c2cc(-c3ccc(C(F)(F)F)nc3)nc(-c3cccnc3)c2ncn1[C@@H]1COC[C@H]1O	< 0.25
Cn1cc(-c2nc(-c3ccc(Cl)cc3)cc3c(=O)n(CC(C)(C)O)cnc23)cn1	< 0.25
CC(C)(O)Cn1cnc2c(-c3cccnc3)nc(-c3ccc(Cl)cc3)cc2c1=O	< 0.25
CC(C)(O)Cn1cnc2c(-c3cccnc3)nc(-c3ccc(C(F)(F)F)cn3)cc2c1=O	< 0.25
Cc1ccc(-c2cc3c(=O)n([C@@H](C)CO)cnc3c(-c3cccnc3)n2)cc1	< 0.25

* * *

experimental.target: hERG channels (Homo sapiens)
Sequence (Q12809 whole entry): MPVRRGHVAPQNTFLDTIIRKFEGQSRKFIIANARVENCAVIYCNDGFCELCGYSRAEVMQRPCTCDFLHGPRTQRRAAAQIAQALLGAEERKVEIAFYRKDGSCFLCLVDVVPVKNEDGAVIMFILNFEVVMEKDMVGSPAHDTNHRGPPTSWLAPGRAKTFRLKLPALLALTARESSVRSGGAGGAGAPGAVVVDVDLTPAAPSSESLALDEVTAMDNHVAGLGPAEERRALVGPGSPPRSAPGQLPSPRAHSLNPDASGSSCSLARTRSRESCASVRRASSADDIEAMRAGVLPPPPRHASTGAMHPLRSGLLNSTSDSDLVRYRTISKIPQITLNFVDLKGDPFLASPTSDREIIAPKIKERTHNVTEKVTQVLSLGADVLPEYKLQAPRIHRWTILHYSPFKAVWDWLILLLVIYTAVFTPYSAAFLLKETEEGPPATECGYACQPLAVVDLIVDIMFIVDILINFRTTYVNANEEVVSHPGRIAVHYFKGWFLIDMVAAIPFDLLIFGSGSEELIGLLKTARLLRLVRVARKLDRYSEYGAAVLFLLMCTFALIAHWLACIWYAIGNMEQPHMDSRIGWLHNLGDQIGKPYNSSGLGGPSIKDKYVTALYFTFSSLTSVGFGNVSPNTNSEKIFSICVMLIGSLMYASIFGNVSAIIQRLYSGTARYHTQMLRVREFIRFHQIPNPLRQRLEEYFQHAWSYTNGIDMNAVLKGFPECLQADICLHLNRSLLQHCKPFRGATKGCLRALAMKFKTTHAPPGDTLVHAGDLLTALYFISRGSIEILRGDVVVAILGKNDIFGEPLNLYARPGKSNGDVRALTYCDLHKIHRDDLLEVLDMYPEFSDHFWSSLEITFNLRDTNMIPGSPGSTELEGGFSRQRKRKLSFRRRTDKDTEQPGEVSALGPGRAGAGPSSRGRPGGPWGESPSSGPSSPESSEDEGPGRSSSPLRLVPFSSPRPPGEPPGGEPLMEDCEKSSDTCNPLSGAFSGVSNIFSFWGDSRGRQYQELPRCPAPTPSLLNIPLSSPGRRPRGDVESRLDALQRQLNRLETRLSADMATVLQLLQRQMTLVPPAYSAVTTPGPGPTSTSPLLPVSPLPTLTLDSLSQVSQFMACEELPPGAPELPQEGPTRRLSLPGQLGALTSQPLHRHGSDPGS
test.protocol: hERG Inhibition Assay, patch clamp in hERG stably expressed HEK 293 cell line
measurement.conditions: read-out: hERG channel: IC50
pIC50: −log10 of the molar value.
readout.type: pIC50

compound	result.modifier	data.value
CC(C)(O)Cn1cnc2c(-c3cccnc3)nc(-c3ccc(C(F)(F)F)nc3)cc2c1=O [Compound 9]	=	4.92
O=c1c2cc(-c3ccc(C(F)(F)F)nc3)nc(-c3cccnc3)c2ncn1[C@@H]1COC[C@H]1O [Compound 79]	<	4.52
C[C@@H](CO)n1cnc2c(-c3cccnc3)nc(-c3ccc(C4CC4)nc3)cc2c1=O [Compound 74]	=	5.32
C[C@@H](CO)n1cnc2c(-c3cccnc3)nc(-c3ccc(C(F)(F)F)cn3)cc2c1=O [Compound 46]	=	5.06
